test: Clearance in dog at 1 mg/kg, iv and 5 mg/kg, po; type: ADME, organism-based, Canis lupus familiaris; settings: in vivo

MOL_SMILES: CC(=O)N1C[C@@H](Oc2cccc(F)c2)C[C@@H]1C(=O)N1CCCN(C2CCC2)CC1
MEASUREMENT_UNITS: mL/min/kg
clearance: 31

###

tested on: Rattus norvegicus; experiment: Ex vivo receptor occupancy of histamine H3 receptor in Wistar rat brain at 10 mg/kg, po after 1 hr by autoradiography; type: functional

MOL_SMILES: O=C([C@H]1C[C@H](Oc2ccc(Cl)cc2)CN1)N1CCCN(C2CCC2)CC1
TARGET_OR_TEST_SYSTEM: Rattus norvegicus
Activity: 99%
//
MOL_SMILES: O=C([C@H]1C[C@H](Oc2cccc(F)c2)CN1)N1CCCN(C2CCC2)CC1
TARGET_OR_TEST_SYSTEM: Rattus norvegicus
Activity: 95%
//
MOL_SMILES: N#Cc1ccc(O[C@@H]2CN[C@@H](C(=O)N3CCCN(C4CCC4)CC3)C2)cc1
TARGET_OR_TEST_SYSTEM: Rattus norvegicus
Activity: 94%
//
MOL_SMILES: O=C([C@H]1C[C@H](Oc2ccc(F)cc2)CN1)N1CCCN(C2CCC2)CC1
TARGET_OR_TEST_SYSTEM: Rattus norvegicus
Activity: 95%
//
MOL_SMILES: CC(=O)N1C[C@@H](Oc2ccc(F)cc2)C[C@@H]1C(=O)N1CCCN(C2CCC2)CC1
TARGET_OR_TEST_SYSTEM: Rattus norvegicus
Activity: 67%

###

assay: Permeability from apical to basolateral side of human Caco-2 cells; format: ADME, cell-based; conditions: read-out: permeability

MOL_SMILES: CC(=O)N1C[C@@H](Oc2cccc(F)c2)C[C@@H]1C(=O)N1CCCN(C2CCC2)CC1
Papp A→B / ×10⁻⁶ cm/s: 13.7

###

assay: Drug level in Wistar rat brain at 10 mg/kg, po after 1 hr; assay type: ADME, organism-based; design: dose 10 mg/kg, route oral; settings: read-out: Drug uptake
OBSERVATION_TYPE: concentration at 1 h

MOL_SMILES: CC(=O)N1C[C@@H](Oc2ccc(F)cc2)C[C@@H]1C(=O)N1CCCN(C2CCC2)CC1
RESULT: 120 nM

MOL_SMILES: O=C([C@H]1C[C@H](Oc2cccc(Cl)c2)CN1)N1CCCN(C2CCC2)CC1
RESULT: 8160 nM

MOL_SMILES: CC(=O)N1C[C@@H](Oc2cccc(F)c2)C[C@@H]1C(=O)N1CCCN(C2CCC2)CC1
RESULT: 430 nM

MOL_SMILES: O=C([C@H]1C[C@H](Oc2ccc(F)cc2)CN1)N1CCCN(C2CCC2)CC1
RESULT: 3400 nM
